MEASURED_TARGET: NS5B from the BK strain (genotype 1b) (Hepatitis C virus genotype 1b)
Construct: NS5B from the BK strain (genotype 1b) is expressed in E. coli as a protein in which the 21 C-terminal amino acids are replaced; made in house; host or cells: E. coli
Sequence (P26663 2420-2989): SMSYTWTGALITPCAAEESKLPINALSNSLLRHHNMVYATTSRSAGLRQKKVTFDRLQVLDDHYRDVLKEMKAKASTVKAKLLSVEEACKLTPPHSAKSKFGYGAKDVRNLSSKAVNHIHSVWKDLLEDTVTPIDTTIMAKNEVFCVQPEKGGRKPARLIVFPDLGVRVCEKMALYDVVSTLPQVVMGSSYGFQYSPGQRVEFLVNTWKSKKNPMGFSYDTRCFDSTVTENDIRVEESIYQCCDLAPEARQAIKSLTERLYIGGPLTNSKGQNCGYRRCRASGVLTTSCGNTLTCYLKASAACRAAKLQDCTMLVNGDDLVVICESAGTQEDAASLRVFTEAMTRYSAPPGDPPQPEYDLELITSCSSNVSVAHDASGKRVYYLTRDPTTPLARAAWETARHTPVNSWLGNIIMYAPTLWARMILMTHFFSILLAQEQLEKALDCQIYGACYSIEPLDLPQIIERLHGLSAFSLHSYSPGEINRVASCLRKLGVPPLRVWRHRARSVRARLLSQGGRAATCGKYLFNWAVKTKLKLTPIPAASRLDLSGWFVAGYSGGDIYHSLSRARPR
ASSAY_EXPLANATION: Hepatitis C polymerase inhibition, NS5B BK strain, 33P-GTP filter assay
Format: biochemical
CONDITION_INFO: Table 1A; NS5B BK strain; read-out: HCV pol BK IC50
pIC50: −log10 of the molar value.
ENDPOINT: pIC50

Previously resolved entries follow.
INSERT INTO measurements (compound, measured_target, experimental_result) VALUES
  ('C/C=C/CCC1(CC(=O)O)OCCc2c1[nH]c1c(Cl)cc(Cl)cc21 (stereo not drawn) [Example 104]', 'NS5B from the BK strain (genotype 1b) (Hepatitis C virus genotype 1b)', '< 4.70'),
  ('CCCC1(CC(=O)O)OCCc2c1[nH]c1c(Br)ccc(Br)c21 (stereo not drawn) [Example 211]', 'NS5B from the BK strain (genotype 1b) (Hepatitis C virus genotype 1b)', 6.89);

Could you now consider this next compound?
Memo: C/C=C/CCC1(CC(=O)O)OCCc2c1[nH]c1c(Cl)cc(C)c(C#N)c21 (stereo not drawn) [Example 186] , reported pIC50: < 5.30
